- study_target: recombinant soluble homotrimeric HA of A/Vietnam/1203/04 (H5N1) (Influenza A virus A/Vietnam/1203/2004 (H5N1))
- measurement_description: HA microarray, BCC supernatant
- applied_conditions: remark: other sources report otherwise
attribute_measured: Trimeric HA Binding RLU (RLU)
Please give a number only; it is taken to be in RLU.

Req: Given the binder TCN-539 (5056_A08) (antibody, V domains shown) VH: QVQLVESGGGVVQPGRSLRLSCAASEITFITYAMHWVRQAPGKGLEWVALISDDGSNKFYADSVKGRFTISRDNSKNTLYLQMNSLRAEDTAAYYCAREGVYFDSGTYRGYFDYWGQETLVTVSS VL: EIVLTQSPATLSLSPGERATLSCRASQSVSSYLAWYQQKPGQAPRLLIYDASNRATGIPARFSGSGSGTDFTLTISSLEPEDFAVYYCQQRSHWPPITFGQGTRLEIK , what is its reported Trimeric HA Binding RLU?
Resp: 545

Req: Entry TCN-522 (3212_I12) (antibody, V domains shown) VH: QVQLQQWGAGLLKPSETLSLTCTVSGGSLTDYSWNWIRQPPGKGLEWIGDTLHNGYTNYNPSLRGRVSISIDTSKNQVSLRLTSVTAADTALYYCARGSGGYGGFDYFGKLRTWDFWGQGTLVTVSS VL: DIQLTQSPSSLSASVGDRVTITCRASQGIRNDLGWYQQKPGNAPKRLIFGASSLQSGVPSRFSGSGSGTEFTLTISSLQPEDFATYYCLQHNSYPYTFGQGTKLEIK : reported Trimeric HA Binding RLU = ?
Resp: 145

Req: Quick check: Trimeric HA Binding RLU of TCN-533 (5256_A17) (antibody, V domains shown) VH: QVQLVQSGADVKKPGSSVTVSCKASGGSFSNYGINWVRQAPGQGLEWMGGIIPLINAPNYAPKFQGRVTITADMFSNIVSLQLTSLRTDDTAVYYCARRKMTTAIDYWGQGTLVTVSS VL: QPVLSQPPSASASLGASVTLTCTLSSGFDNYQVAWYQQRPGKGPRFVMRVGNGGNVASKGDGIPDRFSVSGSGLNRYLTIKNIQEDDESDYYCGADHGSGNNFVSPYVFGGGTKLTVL ?
Resp: 5680
